pIC50: −log10 of the molar value.
Form: system (UniProtKB P07943), quantity (pIC50), values below.
REPORTED METRIC: pIC50

Some compounds with known pIC50 results, for comparison:
[[record]]
compound = "COc1cc([C@H]2O[C@H](c3ccc(O)c(OC)c3)[C@@H](C)[C@H]2C)ccc1O"
measured_number = 4.60

[[record]]
compound = "COc1cc2c(=O)oc3c(O)c(O)cc4c(=O)oc(c1O)c2c34"
measured_number = 5.00

[[record]]
compound = "CC(C)c1ccc2c(c1)CCC1[C@@](C)(CO)CCC[C@]21C (stereo not given in full)"
measured_number = 4.41


[1] Cc1coc2c1C(=O)C(=O)c1c-2ccc2c(C)cccc12 [TANSHINONE I]
[2] COc1cc([C@H]2O[C@@H](c3ccc(O)c(OC)c3)[C@@H](C)[C@H]2C)ccc1O [TETRAHYDROFUROGUAIACIN B]
[ask] I would appreciate it if you could say which entry, 1 or 2 , has the lower pIC50 value. Mark your answer with the label of the selected entry.
[reply] 2
(2: 4.67, 1: 5.00)

---

SYSTEM NAME: Aldo-keto reductase family 1 member B1 (Rattus norvegicus)
pIC50: −log10 of the molar value.
REPORTED METRIC: pIC50

Some molecules with recorded pIC50:
[[record]]
molecule = "CC1(C)CC2C1CC[C@@]1(C)C[C@]2(O)CC[C@@H]1O (stereo not given in full)"
reported_metric = "pIC50"
measured_number = 4.35

[[record]]
molecule = "CC1(C)C[C@H](O)[C@]23CC[C@@H](O)[C@](C)(CCC12)C3 (stereo not given in full)"
reported_metric = "pIC50"
measured_number = 4.02


[1] O=C(/C=C/c1ccc(O[C@@H](C(=O)O)[C@@H](O)c2ccc(O)c(O)c2)c(O)c1)O[C@H](Cc1ccc(O)c(O)c1)C(=O)O
[2] CCOc1ccc(C(=O)/C(C)=C(/C)C(=O)c2ccc(O)c(OC)c2)cc1OC
[ask] Form: Entry with minimum pIC50 (choose one): 1 / 2 Use the label to indicate which entry you chose.
[reply] 2

---

SYSTEM NAME: Aldo-keto reductase family 1 member B1 (Rattus norvegicus, UniProt P07943)
REPORTED METRIC: IC50 (µM)

Sample answers from the record:
[[record]]
compound = "CC(C(=O)O)N1C(=O)c2cc3c(c(O)c2C1=O)CC([C@@H](C)C(=O)O)O3 (stereo partly specified)"
measured_number = 2

[[record]]
compound = "CNC(=O)Oc1c(C)c(OC)cc2c1COC(C)C2 (stereo unspecified)"
measured_number = 34.7

[[record]]
compound = "C[C@@H](C(=O)O)C1Cc2c(cc3c(c2O)C(=O)NC3=O)O1 (stereo partly specified)"
measured_number = 5.37

[[record]]
compound = "O=C1CC(O)C1=O (stereo unspecified)"
measured_number = 19.1

[[record]]
compound = "Cc1cccc2c3c(ccc12)C(=O)C(C(C)CO)=C(O)C3=O (stereo unspecified)"
measured_number = 0.871


[P] O=C(/C=C/c1ccc(O)c(O)c1)OC1C[C@](O)(C(=O)O)C[C@H](O)[C@@H]1O (stereo partly specified)
[Q] C[C@@H](C(=O)O)C1Cc2c(cc3c(c2O)C(=O)N(CC(=O)O)C3=O)O1 (stereo partly specified)
[R] CC(C(=O)O)N1Cc2c(cc3c(c2O)CC([C@@H](C)C(=O)O)O3)C1=O (stereo partly specified)
[S] COc1cc2c(c(OC)c1OC)-c1c(cc(O)c(OC)c1OC)C[C@H](C)[C@H](C)[C@H]2O
[ask] Order the records so the highest IC50 appears first and the lowest last. Returns: the labels listed in the requested order.
[reply] S, R, P, Q

---

SYSTEM NAME: Aldo-keto reductase family 1 member B1 (Rattus norvegicus, UniProt P07943)
pIC50: −log10 of the molar value.
REPORTED METRIC: pIC50

Field: example entries. Status: answers known.
[[record]]
compound = "Cc1cccc2c3c(ccc12)C1=C(C(=O)C3=O)[C@@H](C)CO1 [DIHYDROTANSHINONE I]"
reported_metric = "pIC50"
measured_number = 5.92

[[record]]
compound = "C[C@H]1COC2=C1C(=O)C(=O)c1c2ccc2c1CCCC2(C)C"
reported_metric = "pIC50"
measured_number = 5.32

[[record]]
compound = "CC(=O)C[C@@]1(O)C(=O)C2=C(OC[C@@H]2C)c2ccc3c(c21)CCCC3(C)C"
reported_metric = "pIC50"
measured_number = 5.76

[[record]]
compound = "CC(C)c1ccc2c(c1)CCC1[C@@](C)(C(=O)O)CCC[C@]21C (some centres not stated)"
reported_metric = "pIC50"
measured_number = 4.45


[A] O=C(O)C1Cc2c(oc(=O)c3cc(O)c(O)c(O)c23)C1=O (configuration not stated)
[B] C=C(C)C1CCC(COC2O[C@H](CO)[C@H](O)[C@@H](O)C2O)CC1 (some centres not stated)
[C] CC1(C)C2CC[C@]3(C)C(CC=C4C5C[C@](C)(C(=O)O)C[C@@H](O)[C@]5(C)CC[C@]43C)[C@@]2(C)CC[C@@H]1O (some centres not stated)
[ask] # desc sort on pIC50 across 3 compounds Answer by writing out the labels in the requested order.
[reply] A, B, C
